Data origin: patent US8389724B2

Assay: Stability studies of sitagliptin salts (10 months storage; HPLC, XRD, visual inspection)
Type: physicochemical
Settings: stored 10 months at room temperature, normal pressure, ambient atmosphere; visual inspection
Counter-ions that a name gives are not always drawn.
observable: Aspect/Colour 10 months later

>>> measured("NC(CC(=O)N1CCn2c(nnc2C(F)(F)F)C1)Cc1cc(F)c(F)cc1F.O=C(O)C(O)C(O)C(O)C(O)CO [D-Gluconate, sitagliptin D-gluconate]")
"beige"
>>> measured("N[C@@H](CC(=O)N1CCn2c(nnc2C(F)(F)F)C1)Cc1cc(F)c(F)cc1F.O=S(=O)(O)CCS(=O)(=O)O [Ethane-disulfonate, sitagliptin ethanedisulfonate]")
"off-white"
>>> measured("N[C@@H](CC(=O)N1CCn2c(nnc2C(F)(F)F)C1)Cc1cc(F)c(F)cc1F.N[C@@H](CC(=O)O)C(=O)O [L-aspartate, sitagliptin L-aspartate]")
"white"
>>> measured("N[C@@H](CC(=O)N1CCn2c(nnc2C(F)(F)F)C1)Cc1cc(F)c(F)cc1F.O=C(O)[C@@H](O)[C@H](O)[C@H](O)[C@@H](O)C(=O)O [Galactarate, sitagliptin galactarate]")
"off-white"
>>> measured("N[C@@H](CC(=O)N1CCn2c(nnc2C(F)(F)F)C1)Cc1cc(F)c(F)cc1F [Hydrobromide, sitagliptin hydrobromide]")
"off-white"

---

Assay: Stability studies of sitagliptin salts (10 months storage; HPLC, XRD, visual inspection)
Assay type: physicochemical
Details: stored 10 months at room temperature, normal pressure, ambient atmosphere
Where a name gives a salt, the structure may show the parent alone.
observable: Purity (HPLC) 10 months later (%)

>>> measured("N[C@@H](CC(=O)N1CCn2c(nnc2C(F)(F)F)C1)Cc1cc(F)c(F)cc1F.O=S(=O)(O)CCS(=O)(=O)O [Ethane-disulfonate, sitagliptin ethanedisulfonate]")
99.83
>>> measured("N[C@@H](CC(=O)N1CCn2c(nnc2C(F)(F)F)C1)Cc1cc(F)c(F)cc1F.O=C(O)[C@@H](O)[C@H](O)[C@H](O)[C@@H](O)C(=O)O [Galactarate, sitagliptin galactarate]")
99.15
>>> measured("N[C@@H](CC(=O)N1CCn2c(nnc2C(F)(F)F)C1)Cc1cc(F)c(F)cc1F.N[C@@H](CC(=O)O)C(=O)O [L-aspartate, sitagliptin L-aspartate]")
97.14
>>> measured("N[C@@H](CC(=O)N1CCn2c(nnc2C(F)(F)F)C1)Cc1cc(F)c(F)cc1F [Hydrobromide, sitagliptin hydrobromide]")
98.92
>>> measured("NC(CC(=O)N1CCn2c(nnc2C(F)(F)F)C1)Cc1cc(F)c(F)cc1F.O=C(O)C(O)C(O)C(O)C(O)CO [D-Gluconate, sitagliptin D-gluconate]")
96.29
>>> measured("N#CS.N[C@@H](CC(=O)N1CCn2c(nnc2C(F)(F)F)C1)Cc1cc(F)c(F)cc1F [Thiocyanate, sitagliptin thiocyanate]")
99.22
